Values were extracted from patent US11149040B2.

subjectOfTest: human APJ receptor (Homo sapiens (Human))
Sequence (P35414 whole entry): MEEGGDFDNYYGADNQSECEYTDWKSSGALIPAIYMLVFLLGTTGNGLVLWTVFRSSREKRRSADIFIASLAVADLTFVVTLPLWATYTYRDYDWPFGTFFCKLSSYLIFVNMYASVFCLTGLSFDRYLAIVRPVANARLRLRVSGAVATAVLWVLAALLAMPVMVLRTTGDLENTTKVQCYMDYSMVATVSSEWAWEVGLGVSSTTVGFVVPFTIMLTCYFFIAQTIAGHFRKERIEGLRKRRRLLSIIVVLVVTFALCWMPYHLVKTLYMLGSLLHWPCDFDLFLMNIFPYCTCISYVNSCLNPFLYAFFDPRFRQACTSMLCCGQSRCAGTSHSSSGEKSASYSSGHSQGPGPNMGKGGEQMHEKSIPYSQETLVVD
assayRemarks: [35S]GTPγS binding assay on membranes from CHO cells stably expressing human APJ receptor
Type: biochemical
measurementContext: read-out: Activity hAPJ SPA EC50 IP
Description: [^35S]GTPγS Binding The human APJ receptor was cloned by polymerase chain reaction and the gene encoding the receptor was subcloned in pFLAG-CMV™-3 expression vector (Sigma, Saint Louis, Mo. USA) in-house at Amgen. […] The optimum experimental conditions for the concentrations of GDP, MgCl2, and NaCl in the assay buffer were initially determined. […] Incubation was at RT for 90 min and the microplate was read using a ViewLux™ ultra HTS Microplate Imager (PerkinElmer, Inc.). […]
endpointName: pEC50
Answers are plain numbers, as −log10 of the molar value.

Working through the 3 molecules below one at a time, give pEC50 for each.
1. COC[C@@H]1COc2ncccc2-c2nnc(NS(=O)(=O)[C@@H](C)[C@@H](OC(C)C)c3ncc(C)cn3)n21 (single isomer, unassigned) [Example 40.0]
2. COC[C@@H]1COc2ccc(OC)nc2-c2nnc(NS(=O)(=O)[C@@H](C)[C@H](C)c3ncc(C)cn3)n21 (single isomer, unassigned) [Example 12.0]
3. Cc1cnc([C@H](OC(C)C)[C@H](C)S(=O)(=O)Nc2nnc3n2[C@H](COC(C)C)COc2ccc(F)cc2-3)nc1 (mixture of isomers) [Example 62.0]

### Response
1. 7.07
2. 5.92
3. 7.68
